Settings: pig, simulated gi fluid, pH 6.8
Exercise: for every item that follows, state its recorded t1/2 SIF.
One number for each entry, in h.

Would you please look over these solved cases?
CC[C@H](C)[C@@H]1NC(=O)[C@H](Cc2ccc(O)cc2)NC(=O)[C@@H](N)CSSC[C@@H](C(=O)N2CCC[C@H]2C(=O)N[C@H](CC(=O)NCC(N)=O)CC(C)C)NC(=O)[C@H](CC(N)=O)NC(=O)[C@H](CCC(N)=O)NC1=O ... 3.6
CC[C@H](C)[C@@H]1NC(=O)[C@H](Cc2ccc(O)cc2)NC(=O)[C@@H](N)CSSC[C@@H](C(=O)N2CCC[C@H]2C(=O)N[C@@](C)(CC(C)C)C(=O)NCC(N)=O)NC(=O)[C@H](CC(N)=O)NC(=O)[C@H](CCC(N)=O)NC1=O ... 4.4

Attention now turns to another entry.
Query: Could you please provide reported t1/2 SIF for CC(C)C[C@H](NC(=O)[C@@H]1CSSC[C@@H]2NC(=O)[C@H](CC(C)C)NC(=O)[C@H](CCC(=O)O)NC(=O)[C@@H](NC(=O)[C@H](CCC(=O)O)NC(=O)[C@H](CC(=O)O)NC(=O)[C@@H](N)CC(N)=O)CSSC[C@H](NC(=O)[C@H](C)NC(=O)[C@H](C(C)C)NC(=O)[C@H](CC(N)=O)NC(=O)[C@H](C(C)C)NC2=O)C(=O)N[C@@H]([C@@H](C)O)C(=O)NCC(=O)N1)C(=O)O [Plecanatide, reference compound] ? Thanks!
Result: 0.083

Values were extracted from paper PMC9059125.
